- Experimental Target: T1, mouse GLP-1 receptor (mouse, UniProt O35659 22-463)
- T1 sequence (looked up): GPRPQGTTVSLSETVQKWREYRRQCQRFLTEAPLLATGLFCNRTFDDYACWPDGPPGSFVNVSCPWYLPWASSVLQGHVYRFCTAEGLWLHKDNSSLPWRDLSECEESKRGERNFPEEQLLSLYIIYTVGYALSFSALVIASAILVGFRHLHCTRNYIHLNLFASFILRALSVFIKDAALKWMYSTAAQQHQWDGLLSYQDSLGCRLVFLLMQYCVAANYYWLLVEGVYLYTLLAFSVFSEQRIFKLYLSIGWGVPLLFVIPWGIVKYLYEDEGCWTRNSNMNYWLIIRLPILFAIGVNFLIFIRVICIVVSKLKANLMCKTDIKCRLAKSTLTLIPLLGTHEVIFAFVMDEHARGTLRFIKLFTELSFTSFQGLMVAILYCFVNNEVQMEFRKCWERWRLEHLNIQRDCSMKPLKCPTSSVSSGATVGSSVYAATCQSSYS
- Method: cell-based or functional assay
cAMP EC50 of 400 pM or higher: fulfilled. Under 400 pM: not fulfilled.

{"Binder": "IP244 (Fc fusion) YSEGTFTSDVSKLLEEEAVRLFIEWLLAGAPPGGSGSTASSGSGSATGGGGAATHTCPPCPAPEF", "Class Assignment": "fulfilled"}
{"Binder": "IP297 (Fc fusion) YSEGTFTSDYSKLLEEEAVRLFIEWLLAGGGGGGGGGGGGGGGGGGGGGGGGGACPPC", "Class Assignment": "fulfilled"}
{"Binder": "IP323 (Fc fusion) YSEGTFTSDYSKLLEEEAVRLFIEWLVKGPGGGGGSGGGGSGGGGSGGGGSGGGGSGGGGSA", "Class Assignment": "not fulfilled"}
{"Binder": "IP263 (Fc fusion) YSEGTFTSDYSKLLEEEAVRLFIEWLVKQPGGGGGSGGGGSGGGGSGGGGSATHTCPPCPAPEF", "Class Assignment": "fulfilled"}
{"Binder": "IP374 (Fc fusion) YSEGTFTSLYSKLLEEEAVRLFIEWLLAGGGGGGSGGGGSGGGGSGGGGSATHTCPPC", "Class Assignment": "fulfilled"}
{"Binder": "IP266 (Fc fusion) YSEGTFTSDYSKLLEEEAVRLFIEWLLAGAPPGGSGGGGSGGGGSGGGGSATHTCPPCPAPEF", "Class Assignment": "fulfilled"}
{"Binder": "IP291 (Fc fusion) YSEGTFTSDYSKLLEEECVRLFIEWLVKGGPGGGAPPPGCGGGGGGGGGGGGGGGGGACPPC", "Class Assignment": "fulfilled"}
{"Binder": "IP088 (Fc fusion) YSEGTFTSDYSKLLEEEAVRLFIEWLVKGPAAAGGSGSTASSGSGSATGGGGAATHTCPPCPAPEF", "Class Assignment": "not fulfilled"}
{"Binder": "IP237 (Fc fusion) YSEGTFTSDYSKLLEEEAVRLFIEWLVKGPGGGGGSGGGGSGGGGSGGGGSATHTCPPCPAPEF", "Class Assignment": "not fulfilled"}
{"Binder": "IP212 (Fc fusion) YSEGTFTSDYSKLLEEEAVREFIAWLVKGPAAAGGSGSTASSGSGSATGGGGAATHTCPPCPAPEF", "Class Assignment": "not fulfilled"}
{"Binder": "IP361 (Fc fusion) YSEGTFTSDYRILKEEEAVRLFIEWLLAGGGGGGSGGGGSGGGGSGGGGSATHTCPPC", "Class Assignment": "fulfilled"}

All values here come from patent US20160185837A1.
